- assay: MTT cytotoxicity on normal cell line WI-38
- test.settings: human, WI-38 normal cells, % viability, WI38, 1.6uM (log conc. 0.19)
A collection of compounds and their measured viability at 24 h, 1.6 µM
Give your result in % as a bare value.

Some compounds with known viability at 24 h, 1.6 µM results, for comparison:
- compound: "C/C(=N\\Nc1ccc(C(=O)O)cc1)c1cnn(-c2cc(=O)[nH]c3ccc(C)cc23)c1C [Compound 4g]"
  measurement.label: "viability at 24 h, 1.6 µM"
  recorded.value: 70.2
- compound: "C/C(=N\\Nc1ccc(C(=O)O)cc1)c1cnn(-c2cc(=O)[nH]c3ccccc23)c1C [Compound 4f]"
  measurement.label: "viability at 24 h, 1.6 µM"
  recorded.value: 74.5
- compound: "C/C(=N\\Nc1ccc(S(N)(=O)=O)cc1)c1cnn(-c2cc(=O)[nH]c3ccc(Br)cc23)c1C [Compound 4e]"
  measurement.label: "viability at 24 h, 1.6 µM"
  recorded.value: 70.8

Let us examine a further case.
Would you kindly share the measured viability at 24 h, 1.6 µM for C/C(=N\Nc1ccc(S(N)(=O)=O)cc1)c1cnn(-c2cc(=O)[nH]c3ccc(Cl)cc23)c1C [Compound 4d] ? 73.3

====

- system.name: BRAF^V600E (Homo sapiens, UniProt P15056, V600E)
- Sequence (P15056 whole entry V600E): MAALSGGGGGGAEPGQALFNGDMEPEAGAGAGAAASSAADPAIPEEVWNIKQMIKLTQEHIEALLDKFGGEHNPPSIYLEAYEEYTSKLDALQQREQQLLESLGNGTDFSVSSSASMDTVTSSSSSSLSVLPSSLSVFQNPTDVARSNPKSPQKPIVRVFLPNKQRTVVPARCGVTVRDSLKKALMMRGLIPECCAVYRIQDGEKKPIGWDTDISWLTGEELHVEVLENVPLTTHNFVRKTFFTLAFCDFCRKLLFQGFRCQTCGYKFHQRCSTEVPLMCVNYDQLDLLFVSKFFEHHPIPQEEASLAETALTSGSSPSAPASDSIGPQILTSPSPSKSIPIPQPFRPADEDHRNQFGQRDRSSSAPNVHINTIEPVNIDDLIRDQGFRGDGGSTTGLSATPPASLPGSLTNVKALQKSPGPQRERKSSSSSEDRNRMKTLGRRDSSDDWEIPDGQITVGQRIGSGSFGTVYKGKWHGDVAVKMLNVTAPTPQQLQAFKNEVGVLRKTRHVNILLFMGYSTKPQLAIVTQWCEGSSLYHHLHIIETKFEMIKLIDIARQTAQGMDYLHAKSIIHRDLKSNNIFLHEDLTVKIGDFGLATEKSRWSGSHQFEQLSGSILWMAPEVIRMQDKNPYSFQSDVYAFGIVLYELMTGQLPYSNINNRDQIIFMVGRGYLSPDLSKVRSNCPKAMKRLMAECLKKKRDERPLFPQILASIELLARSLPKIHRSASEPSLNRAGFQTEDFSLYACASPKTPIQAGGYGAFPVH
- assay: BRAF^V600E inhibitory assay (B-Raf (V600E) Kinase Assay)
- Type: biochemical
- test.settings: read-out: BRAF^V600E inhibition IC50 ± SEM
measurement.label: pIC50
Please report pIC50 as the negative decimal logarithm of the molar concentration, giving only the number.

As a guide, the following entries are already answered.
- molecule.smiles: "C/C(=N\\Nc1ccc(C(=O)O)cc1)c1cnn(-c2cc(=O)[nH]c3ccccc23)c1C"
  measurement.label: "pIC50"
  recorded.value: 6.39
- molecule.smiles: "C/C(=N\\Nc1ccc(C(=O)O)cc1)c1cnn(-c2cc(=O)[nH]c3ccc(C)cc23)c1C"
  measurement.label: "pIC50"
  recorded.value: 6.71
- molecule.smiles: "C/C(=N\\Nc1ccc(S(N)(=O)=O)cc1)c1cnn(-c2cc(=O)[nH]c3ccc(Br)cc23)c1C"
  measurement.label: "pIC50"
  recorded.value: 7.17

Now for another entry.
Could you share which pIC50 value was measured for C/C(=N\Nc1ccc(S(N)(=O)=O)cc1)c1cnn(-c2cc(=O)[nH]c3ccc(Cl)cc23)c1C ? 6.60

====

Quick reference for inhibition at 10 µM among some compounds
- Test system: NCI 60 cancer cell lines
- assay: NCI anticancer screening over a panel of 60 cancer cells, single concentration 10 µM
- Format: cell-based, human
- test.settings: Homo sapiens, SK-MEL-28, Melanoma SK-MEL-28, 10 μM; read-out: % Growth Inhibition (GI %)

Short answer please: inhibition at 10 µM, NCI 60 cancer cell lines, entry C/C(=N\Nc1ccc(C(=O)O)cc1)c1cnn(-c2cc(=O)[nH]c3ccc(Cl)cc23)c1C [Compound 4i] < 5%

Kindly state the measured inhibition at 10 µM obtained for COc1ccc2[nH]c(=O)cc(-n3ncc(/C(C)=N/Nc4ccc(S(N)(=O)=O)cc4)c3C)c2c1 [Compound 4c] with NCI 60 cancer cell lines. < 5%

Quick check: inhibition at 10 µM on NCI 60 cancer cell lines, item C/C(=N\Nc1ccc(C(=O)O)cc1)c1cnn(-c2cc(=O)[nH]c3ccc(Br)cc23)c1C [Compound 4j] ? < 5%
